- ASSAY_METHOD_TEXT: Quantitative High-Throughput drug screen in 47 multiple myeloma cell lines against the NCATS MIPE library collection: AMO1_DSMZ cell viability assay (AID 1918927; further: nearly all actives have a fitted effect of over 30% in size)
- CONDITIONS: AMO1 myeloma cells viability, CellTiter-Glo ATP luminescence, 48 h; series mostly up to 45.8 µM
Results filed as inconclusive are left out. Activity calls are given as the source filed them. The call rests on the fitted dose curve; in most records, active means well fitted cell-killing curve with a large enough effect; inconclusive means small, poorly fitted or top-dose-only effect, or effect the other way; inactive means no such curve, though single readings can be large or run the other way.
A correct response names exactly one class from active, inactive

Ask: Please let me know the test result on file for CN(C)c1ccc2cc(C(=O)N[C@@H](CCCN=C(N)CCl)C(=O)NCc3ccccc3)ccc2c1 .
Reply: active

Ask: Please let me know the test result on file for N#Cc1c(C2CCNCC2)cc(-c2c(O)cccc2OCC2CC2)nc1N .
Reply: active

Ask: Please let me know the test result on file for Cc1cncc2cccc(S(=O)(=O)N3CCCN(C(=O)CN)C[C@@H]3C)c12 .
Reply: active

Ask: Please let me know the test result on file for O=C(O)C(=O)Nc1cccc(C2=NN=N[N]2)c1 .
Reply: inactive

Ask: Please let me know the test result on file for COc1ccc(Nc2cc(-c3cnc(N)nc3)nc(N3CCOCC3)n2)cn1 .
Reply: active
